# System: HEK-293T
# ASSAY_PROCEDURE: Multiplex assay against HEK293T
# Assay type: toxicity, cell-based
# MEASUREMENT_SETUP: human, 48 h, 10 µM, compound concentration 10 uM, replicate 2
Simple rule here: Population Membrane Permeable-Phenotype (%) less than 6% is YES, otherwise NO.

Problem: I wonder whether Cc1csc2c(N[C@@H](C)CN3CCN(S(=O)(=O)c4ccc(Cl)c(Cl)c4)CC3)ncnc12 has Population Membrane Permeable-Phenotype (%) below 6%. Can you tell?
Solution: NO

Problem: For this molecule, is Population Membrane Permeable-Phenotype (%) lower than 6%? c1cn2cc(-c3ccc4cn[nH]c4c3)nc(Nc3ccc(N4CCOCC4)cc3)c2n1
Solution: YES

Problem: A record lists Cl.N#Cc1ccc2[nH]cc(CCCCN3CCN(c4ccc5oc(C(N)=O)cc5c4)CC3)c2c1 [VILAZODONE HYDROCHLORIDE] . Is its Population Membrane Permeable-Phenotype (%) below 6%?
Solution: NO

Problem: I wonder whether O=C1NCN(c2ccccc2)C12CCN(CCCOc1ccc(F)cc1)CC2 [SPIRAMIDE] has Population Membrane Permeable-Phenotype (%) below 6%. Can you tell?
Solution: YES

Problem: Please determine if C=CC(=O)Nc1cccc(C(=O)Nc2ccc(Nc3cc(-c4[nH]c(SC)nc4C)ccn3)cc2)c1 is below 6% in terms of Population Membrane Permeable-Phenotype (%).
Solution: NO

Where these numbers come from: ChEMBL document CHEMBL4689842
